- targetUnderTest: T1, recombinant human soluble gpNMB (recombinant human gpNMB-FLAG-His) (human, UniProt Q14956 23-498)
- T1 sequence: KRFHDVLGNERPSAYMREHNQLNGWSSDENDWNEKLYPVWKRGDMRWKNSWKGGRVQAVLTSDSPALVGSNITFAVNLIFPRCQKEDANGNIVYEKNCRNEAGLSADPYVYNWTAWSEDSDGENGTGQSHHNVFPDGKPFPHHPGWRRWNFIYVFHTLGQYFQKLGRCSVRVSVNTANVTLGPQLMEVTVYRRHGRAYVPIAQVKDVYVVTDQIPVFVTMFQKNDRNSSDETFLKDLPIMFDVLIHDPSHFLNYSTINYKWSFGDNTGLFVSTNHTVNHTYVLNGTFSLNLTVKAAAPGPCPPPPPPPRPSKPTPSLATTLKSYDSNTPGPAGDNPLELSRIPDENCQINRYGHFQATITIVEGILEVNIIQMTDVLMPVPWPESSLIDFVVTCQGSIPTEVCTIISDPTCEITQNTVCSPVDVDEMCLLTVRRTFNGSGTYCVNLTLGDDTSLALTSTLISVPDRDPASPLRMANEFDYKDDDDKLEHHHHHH
- procedureText: SPR, antibody 100 nM over captured gpNMB-FLAG-His, 25C
measuredParameter: kon (M⁻¹ s⁻¹)
Numbers only here, please. The scale is M⁻¹ s⁻¹.

binder	measuredParameter	unitInfo	valueObserved
GPN15-3 (antibody, V domains shown, monoclonal with mouse IgG constant regions) VH: QVTLKESGPGILQPSQTLSLTCSFSGFSLTTSGMGVGWIRQPSGKGLEWLADMWWDDDKNYNPSLKSRLTISKDNSKKQVFLKIASVDTADTATYYCARRVYSSWFAYWGQGTLVTVSA VL: DIVMTQSQKFMSTSVGDRVSVTCKASQNVGANVAWYQQKPGQSPKTLIYSASYRYGGVPDRFTGSGSGTDFTFTITNVQSEDLAEYFCQQYNNYPLTFGAGTKLDLK	kon	M⁻¹ s⁻¹	130000
GPN18-7 (antibody, V domains shown, monoclonal with mouse IgG constant regions) VH: QVTLKESGPGILQPSQTLSLTCSFSGFSLSTSVMGVGWIRQPSGKGLEWLADIWWDDDKDYNPSLKSRLTISKDTSKNQVFLKIASVDTADTATYYCARAYYSNFEYYGMDYWGQGTSVTVSS VL: DVLMTQIPLSLPVSLGDQASISCRSSQTIVHSNGNTYLEWYLQKPGQSPKLLIYKVSNRFSGVPDRFSGSGSGTDFTLKISRVEAEDLGVYYCFQGSHVPFTFGSGTKLEIK	kon	M⁻¹ s⁻¹	26000

Prompt: For GPN06-1 (antibody, V domains shown, monoclonal with mouse IgG constant regions) VH: QVQLQQPGAEIVRPGASVKLSCKASGYTFTDNWMGWVKQRPGQGLEWIGAIDPSDSFTNYNQNFKGKATLTVDTSSSTAYMQLSSLTSEDSAVYFCTRSGYYGSPKLGGDYWGQGTTLTVSS VL: QIVLTQSPAIMSASLGEEITLTCSASSSISYMHWYQQKSGTSPKLLIYSTSNLASGVPSRFSGSGSGTFYSLTISSVEAEDAADYYCHQWNSYPCTFGGGTKLEIK , what is its reported kon?
Completion: 340000
